# test.name: Cmax in cynomolgus monkey at 3 mg/kg, iv
# Assay type: ADME, organism-based, Macaca fascicularis
# Design: dose 3 mg/kg, route intravenous
# condition.info: in vivo
measurement.kind: Cmax
Just the number plus its unit, please.

Answer with the recorded Cmax of Cc1c(C(=O)N2CCOc3ccc(-c4ccc(N)nc4)cc3C2)ccc(S(C)(=O)=O)c1F only. 950 nM

----------
# test.name: AUC (0 to infinity) in CD rat at 3 mg/kg, po
# Type: ADME, organism-based
# Parameters: time infinity, dose 3 mg/kg, route oral
# condition.info: plasma
measurement.kind: AUC(0-inf)
Just the number plus its unit, please.

Answer with the recorded AUC(0-inf) of Cc1c(C(=O)N2CCOc3ccc(-c4ccc(N)nc4)cc3C2)ccc(S(C)(=O)=O)c1F only. 0.952 µM·h

----------
# study.target: CDK3/cyclin E (Homo sapiens, UniProt O96020+P24864+Q00526)
# Sequence (P24864 whole entry): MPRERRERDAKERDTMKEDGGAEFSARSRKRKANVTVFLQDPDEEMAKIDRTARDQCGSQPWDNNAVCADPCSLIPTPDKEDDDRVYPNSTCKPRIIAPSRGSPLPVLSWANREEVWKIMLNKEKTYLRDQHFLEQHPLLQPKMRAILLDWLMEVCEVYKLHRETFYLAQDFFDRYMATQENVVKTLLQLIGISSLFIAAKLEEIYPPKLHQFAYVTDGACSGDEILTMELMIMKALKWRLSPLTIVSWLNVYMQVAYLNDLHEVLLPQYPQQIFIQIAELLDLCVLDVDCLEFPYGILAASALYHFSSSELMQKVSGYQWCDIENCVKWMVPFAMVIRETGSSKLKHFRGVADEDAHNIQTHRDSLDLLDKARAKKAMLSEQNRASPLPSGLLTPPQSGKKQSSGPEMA
# Sequence (O96020 whole entry): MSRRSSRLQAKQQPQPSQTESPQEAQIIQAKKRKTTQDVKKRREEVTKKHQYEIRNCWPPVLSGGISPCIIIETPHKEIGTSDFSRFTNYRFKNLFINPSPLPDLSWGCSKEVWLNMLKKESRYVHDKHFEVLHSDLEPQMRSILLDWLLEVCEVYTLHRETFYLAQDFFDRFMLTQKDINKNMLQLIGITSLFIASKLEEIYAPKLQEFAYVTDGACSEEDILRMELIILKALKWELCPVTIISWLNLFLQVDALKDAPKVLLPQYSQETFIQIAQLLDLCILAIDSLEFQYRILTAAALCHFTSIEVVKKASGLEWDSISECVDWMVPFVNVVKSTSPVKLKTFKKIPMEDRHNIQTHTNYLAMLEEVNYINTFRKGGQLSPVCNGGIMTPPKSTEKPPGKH
# Sequence (Q00526 whole entry): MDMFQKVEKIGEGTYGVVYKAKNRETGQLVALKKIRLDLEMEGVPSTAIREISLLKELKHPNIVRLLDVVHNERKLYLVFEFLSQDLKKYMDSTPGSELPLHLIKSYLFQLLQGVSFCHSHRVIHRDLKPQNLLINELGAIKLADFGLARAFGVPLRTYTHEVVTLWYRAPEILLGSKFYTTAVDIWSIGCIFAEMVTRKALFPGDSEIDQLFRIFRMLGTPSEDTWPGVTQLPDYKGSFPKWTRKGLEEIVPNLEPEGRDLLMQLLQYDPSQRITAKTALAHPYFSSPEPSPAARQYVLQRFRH
# test.name: Inhibition of CDK3/Cyclin E (unknown origin)
measurement.kind: IC50

Answer with the recorded IC50 of Cc1c(C(=O)N2CCOc3ccc(-c4ccc(N)nc4)cc3C2)ccc(S(C)(=O)=O)c1F only. > 10 µM

----------
# test.name: Plasma concentration in athymic mouse plasma xenografted with human PC3 cells at 100 mg/kg, po after 8 hrs
# Format: ADME, organism-based, PC-3
# Parameters: dose 100 mg/kg, route oral
measurement.kind: concentration at 8 h (µM)
Give bare numbers, in µM.

Answer with the recorded concentration at 8 h of Cc1c(C(=O)N2CCOc3ccc(-c4ccc(N)nc4)cc3C2)ccc(S(C)(=O)=O)c1F only. 26.7

----------
# test.name: Tmax in athymic nude mouse at 10 mg/kg, po
# Type: ADME, organism-based
# Set-up: dose 10 mg/kg, route oral
# condition.info: in vivo
measurement.kind: Tmax (min)
Answers are plain numbers, in min.

Answer with the recorded Tmax of Cc1c(C(=O)N2CCOc3ccc(-c4ccc(N)nc4)cc3C2)ccc(S(C)(=O)=O)c1F only. 30

----------
# test.name: Plasma concentration in athymic mouse plasma xenografted with human MCF7 cells at 100 mg/kg, po after 4 hrs
# Type: ADME, organism-based
# Design: dose 100 mg/kg, route oral
measurement.kind: concentration at 4 h
Just the number plus its unit, please.

Answer with the recorded concentration at 4 h of Cc1c(C(=O)N2CCOc3ccc(-c4ccc(N)nc4)cc3C2)ccc(S(C)(=O)=O)c1F only. 30.1 µM

----------
# test.name: Drug uptake in tumor of athymic mouse xenografted with human MCF7 cells at 100 mg/kg, po after 32 hrs
# Type: ADME, organism-based, Neoplasm
# Set-up: dose 100 mg/kg, route oral
# condition.info: read-out: Drug uptake
measurement.kind: concentration at 32 h (nM)
Numbers only, in nM.

Answer with the recorded concentration at 32 h of Cc1c(C(=O)N2CCOc3ccc(-c4ccc(N)nc4)cc3C2)ccc(S(C)(=O)=O)c1F only. 100

----------
# study.target: Platelet-derived growth factor receptor beta (Homo sapiens, UniProt P09619)
# Sequence (P09619 whole entry): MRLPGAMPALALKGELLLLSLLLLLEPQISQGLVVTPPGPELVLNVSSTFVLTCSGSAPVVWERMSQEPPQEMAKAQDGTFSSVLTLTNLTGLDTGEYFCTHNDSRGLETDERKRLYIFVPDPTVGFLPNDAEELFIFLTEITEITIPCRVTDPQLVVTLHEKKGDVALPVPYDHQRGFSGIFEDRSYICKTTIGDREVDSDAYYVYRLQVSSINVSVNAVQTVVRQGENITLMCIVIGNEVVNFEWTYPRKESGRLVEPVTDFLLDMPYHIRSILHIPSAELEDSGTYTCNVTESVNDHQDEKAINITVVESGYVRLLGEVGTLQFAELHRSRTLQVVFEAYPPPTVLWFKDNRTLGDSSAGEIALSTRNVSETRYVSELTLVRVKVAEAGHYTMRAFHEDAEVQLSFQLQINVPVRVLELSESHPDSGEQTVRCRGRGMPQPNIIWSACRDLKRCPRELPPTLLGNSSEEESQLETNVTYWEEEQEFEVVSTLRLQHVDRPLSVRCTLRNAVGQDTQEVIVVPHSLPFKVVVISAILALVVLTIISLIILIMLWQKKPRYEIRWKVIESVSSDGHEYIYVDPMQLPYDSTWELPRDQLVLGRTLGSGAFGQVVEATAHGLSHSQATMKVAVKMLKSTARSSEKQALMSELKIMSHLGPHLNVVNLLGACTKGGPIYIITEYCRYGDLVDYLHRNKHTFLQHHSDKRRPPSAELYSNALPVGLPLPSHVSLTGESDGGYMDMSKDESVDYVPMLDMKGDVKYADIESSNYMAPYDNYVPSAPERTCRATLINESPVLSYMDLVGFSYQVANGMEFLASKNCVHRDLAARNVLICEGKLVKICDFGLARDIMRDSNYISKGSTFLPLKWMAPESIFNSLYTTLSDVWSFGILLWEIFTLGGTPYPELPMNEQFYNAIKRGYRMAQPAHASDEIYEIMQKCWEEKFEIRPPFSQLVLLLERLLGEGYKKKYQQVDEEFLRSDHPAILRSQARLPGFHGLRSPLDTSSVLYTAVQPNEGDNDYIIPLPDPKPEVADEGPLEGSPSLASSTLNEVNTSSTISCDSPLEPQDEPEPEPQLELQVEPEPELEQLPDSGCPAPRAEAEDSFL
measurement.kind: IC50

Answer with the recorded IC50 of Cc1c(C(=O)N2CCOc3ccc(-c4ccc(N)nc4)cc3C2)ccc(S(C)(=O)=O)c1F only. > 3.5 µM

----------
# study.target: Phosphatidylinositol 4,5-bisphosphate 3-kinase catalytic subunit alpha isoform (Homo sapiens)
# Sequence (P42336 whole entry, canonical isoform): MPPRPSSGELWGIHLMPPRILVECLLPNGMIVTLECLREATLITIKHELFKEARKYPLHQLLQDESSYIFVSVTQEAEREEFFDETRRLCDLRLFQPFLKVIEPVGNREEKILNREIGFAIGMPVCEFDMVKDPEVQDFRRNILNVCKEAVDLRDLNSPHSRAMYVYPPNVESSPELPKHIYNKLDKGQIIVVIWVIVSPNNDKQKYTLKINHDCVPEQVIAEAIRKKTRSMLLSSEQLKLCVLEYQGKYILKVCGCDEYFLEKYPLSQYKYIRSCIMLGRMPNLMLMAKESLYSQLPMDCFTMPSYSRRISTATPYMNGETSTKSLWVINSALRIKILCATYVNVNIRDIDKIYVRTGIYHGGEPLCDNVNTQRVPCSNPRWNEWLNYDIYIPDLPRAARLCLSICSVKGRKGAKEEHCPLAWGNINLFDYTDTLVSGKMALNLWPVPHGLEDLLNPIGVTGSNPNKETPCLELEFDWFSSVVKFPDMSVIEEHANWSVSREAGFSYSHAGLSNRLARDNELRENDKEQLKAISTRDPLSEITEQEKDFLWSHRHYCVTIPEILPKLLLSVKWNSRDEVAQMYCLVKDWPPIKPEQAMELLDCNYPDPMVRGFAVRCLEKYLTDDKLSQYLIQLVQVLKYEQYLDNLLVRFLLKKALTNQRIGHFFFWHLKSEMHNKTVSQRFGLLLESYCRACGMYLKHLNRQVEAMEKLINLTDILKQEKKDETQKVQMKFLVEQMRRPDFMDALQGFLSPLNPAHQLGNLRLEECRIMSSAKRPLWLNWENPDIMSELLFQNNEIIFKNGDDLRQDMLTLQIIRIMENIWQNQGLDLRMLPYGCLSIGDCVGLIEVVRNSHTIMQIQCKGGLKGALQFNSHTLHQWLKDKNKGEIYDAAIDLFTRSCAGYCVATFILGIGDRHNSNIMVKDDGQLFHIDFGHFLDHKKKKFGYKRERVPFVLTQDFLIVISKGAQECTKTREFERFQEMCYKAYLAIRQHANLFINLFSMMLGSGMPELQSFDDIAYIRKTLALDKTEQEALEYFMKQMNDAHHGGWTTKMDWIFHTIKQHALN
# test.name: Inhibition of PI3Kalpha (unknown origin) using PIP2 as substrate after 2 hrs by luminescence assay
measurement.kind: pIC50
Give bare numbers, as −log10 of the molar value.

Previously resolved entries follow.
O=C(c1ccc(C(=O)C(F)(F)F)cc1)N1CCOc2ccc(-c3ccc4cn[nH]c4c3)cc2C1 6.59
CC(=O)c1ccc(C(=O)N2CCOc3ccc(-c4ccc5cnn(C)c5c4)cc3C2)cc1 5.61
CC(=O)c1ccc(C(=O)N2CCOc3ccc(-c4ccc5cn[nH]c5c4)cc3C2)cc1 5.74
Cc1cc(C(=O)N2CCOc3ccc(-c4ccc5nc[nH]c5c4)cc3C2)ccc1S(C)(=O)=O 6.34

Answer with the recorded pIC50 of O=C(c1ccc(C(=O)C(F)(F)F)cc1)N1CCOc2ccc(-c3ccc4nc[nH]c4c3)cc2C1 only. 7.05

----------
# test.name: Cmax in Beagle dog at 3 mg/kg, iv
# Format: ADME, organism-based, Canis lupus familiaris
# Set-up: dose 3 mg/kg, route intravenous
# condition.info: in vivo
measurement.kind: Cmax (nM)
Answers are plain numbers, in nM.

Answer with the recorded Cmax of Cc1c(C(=O)N2CCOc3ccc(-c4ccc(N)nc4)cc3C2)ccc(S(C)(=O)=O)c1F only. 2280

----------
# test.name: Oral bioavailability in CD rat at 3 mg/kg
# Type: ADME, organism-based
# condition.info: in vivo
measurement.kind: bioavailability (%)
Give bare numbers, in %.

Answer with the recorded bioavailability of Cc1c(C(=O)N2CCOc3ccc(-c4ccc(N)nc4)cc3C2)ccc(S(C)(=O)=O)c1F only. 25.6

----------
# test.name: Cmax in Beagle dog at 3 mg/kg, po
# Assay type: ADME, organism-based, Canis lupus familiaris
# Design: dose 3 mg/kg, route oral
# condition.info: in vivo
measurement.kind: Cmax (nM)
Answers are plain numbers, in nM.

Answer with the recorded Cmax of Cc1c(C(=O)N2CCOc3ccc(-c4ccc(N)nc4)cc3C2)ccc(S(C)(=O)=O)c1F only. 1660

----------
# test.name: Oral bioavailability in athymic nude mouse at 10 mg/kg
# Format: ADME, organism-based
# condition.info: in vivo
measurement.kind: bioavailability (%)
One number for each entry, in %.

Answer with the recorded bioavailability of Cc1c(C(=O)N2CCOc3ccc(-c4ccc(N)nc4)cc3C2)ccc(S(C)(=O)=O)c1F only. 31.4

----------
# test.name: Metabolic stability in mouse liver microsomes after 30 mins
# Assay type: ADME, Microsome
# condition.info: read-out: Stability
remaining at 0.5 h under 60% gets true, anything at or over 60% gets false.

Recorded results for 2 compounds are shown here.
Cc1nc2ccc(-c3ccc4c(c3)CN(C(=O)c3ccc(C(=O)C(F)(F)F)cc3)CCO4)cc2[nH]1 true
Cc1c(C(=O)N2CCOc3ccc(-c4ccc(N)nc4)cc3C2)ccc(S(C)(=O)=O)c1F false

I'd appreciate it if you could check whether CCCc1cc(S(C)(=O)=O)ccc1C(=O)N1CCOc2ccc(-c3ccc4nc[nH]c4c3)cc2C1 has remaining at 0.5 h smaller than 60%. false

I'd appreciate it if you could check whether Cc1cc(C(=O)N2CCOc3ccc(-c4ccc5nc[nH]c5c4)cc3C2)ccc1S(C)(=O)=O has remaining at 0.5 h smaller than 60%. false

I'd appreciate it if you could check whether CS(=O)(=O)c1ccc(C(=O)N2CCOc3ccc(-c4ccc5nc[nH]c5c4)cc3C2)c(Cl)c1 has remaining at 0.5 h smaller than 60%. true

I'd appreciate it if you could check whether O=C(c1ccc(C(=O)C(F)(F)F)cc1)N1CCOc2ccc(-c3ccc4[nH]ncc4c3)cc2C1 has remaining at 0.5 h smaller than 60%. true

I'd appreciate it if you could check whether CNS(=O)(=O)c1ccc(C(=O)N2CCOc3ccc(-c4ccc5nc[nH]c5c4)cc3C2)cc1 has remaining at 0.5 h smaller than 60%. false

I'd appreciate it if you could check whether CCc1cc(S(C)(=O)=O)ccc1C(=O)N1CCOc2ccc(-c3ccc4nc[nH]c4c3)cc2C1 has remaining at 0.5 h smaller than 60%. true

----------
# study.target: Phosphatidylinositol 4,5-bisphosphate 3-kinase catalytic subunit delta isoform (Homo sapiens, UniProt O00329)
# test.name: Inhibition of PI3Kdelta (unknown origin)
measurement.kind: IC50

Answer with the recorded IC50 of Cc1c(C(=O)N2CCOc3ccc(-c4ccc(N)nc4)cc3C2)ccc(S(C)(=O)=O)c1F only. > 5 µM

----------
# study.target: Vascular endothelial growth factor receptor 1 (Homo sapiens)
# Sequence (P17948 whole entry): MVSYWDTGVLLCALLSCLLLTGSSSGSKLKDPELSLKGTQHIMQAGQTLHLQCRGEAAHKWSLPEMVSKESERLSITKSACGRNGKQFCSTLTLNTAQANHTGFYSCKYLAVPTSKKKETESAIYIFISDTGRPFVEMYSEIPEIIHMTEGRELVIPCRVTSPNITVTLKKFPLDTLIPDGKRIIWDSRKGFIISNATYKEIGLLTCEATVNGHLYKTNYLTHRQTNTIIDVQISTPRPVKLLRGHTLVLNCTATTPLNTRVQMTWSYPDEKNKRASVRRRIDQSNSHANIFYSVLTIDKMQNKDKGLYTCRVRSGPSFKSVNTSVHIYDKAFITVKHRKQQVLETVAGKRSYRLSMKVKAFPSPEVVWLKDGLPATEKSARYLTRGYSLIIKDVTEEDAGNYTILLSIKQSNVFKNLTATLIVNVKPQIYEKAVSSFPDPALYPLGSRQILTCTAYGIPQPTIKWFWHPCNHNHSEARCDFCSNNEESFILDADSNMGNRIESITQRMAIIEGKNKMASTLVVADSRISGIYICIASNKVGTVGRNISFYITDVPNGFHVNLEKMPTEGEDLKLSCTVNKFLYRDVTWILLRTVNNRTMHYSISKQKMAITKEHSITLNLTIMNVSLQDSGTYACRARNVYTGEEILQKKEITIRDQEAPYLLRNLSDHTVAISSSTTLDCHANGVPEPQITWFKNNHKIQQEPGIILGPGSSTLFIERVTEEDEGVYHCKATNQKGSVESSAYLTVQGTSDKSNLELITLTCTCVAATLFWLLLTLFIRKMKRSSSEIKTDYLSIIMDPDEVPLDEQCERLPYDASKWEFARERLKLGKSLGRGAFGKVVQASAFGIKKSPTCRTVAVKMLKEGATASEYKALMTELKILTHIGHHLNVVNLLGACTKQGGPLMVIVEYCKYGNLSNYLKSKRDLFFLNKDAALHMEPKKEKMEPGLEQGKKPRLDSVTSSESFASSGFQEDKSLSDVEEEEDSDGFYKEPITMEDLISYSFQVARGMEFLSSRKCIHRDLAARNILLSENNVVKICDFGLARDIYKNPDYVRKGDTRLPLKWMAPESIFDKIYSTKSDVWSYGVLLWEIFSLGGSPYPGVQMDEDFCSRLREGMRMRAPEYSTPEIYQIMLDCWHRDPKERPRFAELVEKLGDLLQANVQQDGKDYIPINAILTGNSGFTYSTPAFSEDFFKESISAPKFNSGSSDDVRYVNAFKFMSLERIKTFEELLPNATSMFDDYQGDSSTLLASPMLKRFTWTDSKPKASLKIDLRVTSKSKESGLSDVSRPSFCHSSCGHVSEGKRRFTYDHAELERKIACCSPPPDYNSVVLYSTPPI
pIC50: −log10 of the molar value.
measurement.kind: pIC50

Answer with the recorded pIC50 of Cc1c(C(=O)N2CCOc3ccc(-c4ccc(N)nc4)cc3C2)ccc(S(C)(=O)=O)c1F only. < 5.46

----------
# test.name: Plasma concentration in athymic mouse plasma xenografted with human PC3 cells at 100 mg/kg, po after 16 hrs
# Assay type: ADME, organism-based, PC-3
# Set-up: dose 100 mg/kg, route oral
measurement.kind: concentration at 16 h (µM)
Give bare numbers, in µM.

Answer with the recorded concentration at 16 h of Cc1c(C(=O)N2CCOc3ccc(-c4ccc(N)nc4)cc3C2)ccc(S(C)(=O)=O)c1F only. 6.17

----------
# test.name: Drug uptake in tumor of athymic mouse xenografted with human MCF7 cells at 100 mg/kg, po after 8 hrs
# Type: ADME, organism-based, Neoplasm
# Set-up: dose 100 mg/kg, route oral
# condition.info: read-out: Drug uptake
measurement.kind: concentration at 8 h (µM)
One number for each entry, in µM.

Answer with the recorded concentration at 8 h of Cc1c(C(=O)N2CCOc3ccc(-c4ccc(N)nc4)cc3C2)ccc(S(C)(=O)=O)c1F only. 16.6

----------
# study.target: DNA-dependent protein kinase catalytic subunit (Homo sapiens)
# test.name: Inhibition of DNA-PK (unknown origin)
measurement.kind: pIC50
Give bare numbers, as −log10 of the molar value.

Answer with the recorded pIC50 of Cc1c(C(=O)N2CCOc3ccc(-c4ccc(N)nc4)cc3C2)ccc(S(C)(=O)=O)c1F only. 5.05
